TEST SYSTEM: TGF-beta receptor type-1 (Mus musculus)
Sequence (Q64729 whole entry): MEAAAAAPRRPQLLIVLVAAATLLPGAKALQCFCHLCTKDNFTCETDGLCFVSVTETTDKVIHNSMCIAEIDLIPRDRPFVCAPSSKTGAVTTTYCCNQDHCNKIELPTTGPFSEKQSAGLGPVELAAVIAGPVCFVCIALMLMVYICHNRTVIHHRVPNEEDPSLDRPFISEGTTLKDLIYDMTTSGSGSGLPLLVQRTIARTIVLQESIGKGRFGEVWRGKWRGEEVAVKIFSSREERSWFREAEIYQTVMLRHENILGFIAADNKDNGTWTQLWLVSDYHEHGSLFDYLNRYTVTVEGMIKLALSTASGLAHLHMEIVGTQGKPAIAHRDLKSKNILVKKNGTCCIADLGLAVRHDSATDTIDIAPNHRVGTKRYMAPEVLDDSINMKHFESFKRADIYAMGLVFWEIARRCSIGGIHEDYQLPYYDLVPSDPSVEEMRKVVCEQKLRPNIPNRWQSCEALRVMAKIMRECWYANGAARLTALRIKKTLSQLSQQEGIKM
METHOD SUMMARY: Inhibition of ALK5 signaling in mouse NIH3T3 cells transfected with (CAGA)12-luciferase reporter incubated for 18 hrs in presence of TGF-beta1 by dual-luciferase reporter assay
OBSERVED PROPERTY: EC50

input: Complete the entry with EC50 for "CC(=O)Nc1cccc(-c2nn(CCC3CCN(C(C)=O)CC3)c3ncnc(N)c23)c1"
output: > 1 µM

input: Please indicate EC50 recorded for "Cc1ccc(S(=O)(=O)N2CCC(CCn3nc(-c4ccc5[nH]ccc5c4)c4c(N)ncnc43)CC2)cc1"
output: 0.348 µM

input: Annotate the compound "CC(=O)N1CCC(CCn2nc(-c3ccc4nccnc4c3)c3c(N)ncnc32)CC1" with its measured EC50.
output: > 1 µM

input: Identify EC50 associated with the compound "Nc1ncnc2c1c(-c1ccc3[nH]ccc3c1)nn2CCC1CCNCC1"
output: > 1 µM

input: Please look at this compound and report its EC50: "CC(=O)N1CCC(CCn2nc(-c3ccc4[nH]cc(C)c4c3)c3c(N)ncnc32)CC1"
output: 0.0153 µM

input: Recall and state the measured EC50 for "CCS(=O)(=O)N1CCC(CCn2nc(-c3ccc4[nH]ccc4c3)c3c(N)ncnc32)CC1" .
output: 0.0908 µM

input: // Input: "Nc1ncnc2c1c(-c1ccc3[nH]ccc3c1)nn2CCC1CCN(S(=O)(=O)c2cc(Cl)ccc2Cl)CC1" . Output its EC50 only.
output: > 1 µM

input: Return reported EC50. Input compound: "Nc1ncnc2c1c(-c1ccc3[nH]ccc3c1)nn2CCC1CCN(S(=O)(=O)c2ccc(Cl)cc2Cl)CC1"
output: > 1 µM

input: Provide EC50 value for the following compound: "COc1ccc(S(=O)(=O)N2CCC(CCn3nc(-c4ccc5[nH]ccc5c4)c4c(N)ncnc43)CC2)c(OC)c1"
output: > 1 µM

input: Using the record for "Nc1ncnc2c1c(-c1ccc3[nH]ccc3c1)nn2CCC1CCN(S(=O)(=O)c2cc(F)cc(F)c2)CC1" , state its measured EC50.
output: > 1 µM

input: Return EC50 (reported value) for this compound: "Nc1ncnc2c1c(-c1ccc3[nH]ccc3c1)nn2CCC1CCN(C(=O)c2ccccc2)CC1"
output: 0.273 µM

input: Name the recorded EC50 of the item "CC(=O)N1CCC(CCn2nc(-c3ccc4cc[nH]c4c3)c3c(N)ncnc32)CC1" in your answer.
output: > 1 µM

input: Answer with the recorded EC50 for the compound listed here: "CC(=O)N1CCC(CCn2nc(-c3ccc4ncccc4c3)c3c(N)ncnc32)CC1"
output: > 1 µM

input: Provide only the value of recorded EC50 for "Nc1ncnc2c1c(-c1ccc3[nH]ccc3c1)nn2CCC1CCN(S(=O)(=O)c2cccnc2)CC1"
output: > 1 µM

input: Look up EC50 of "COc1ccc(S(=O)(=O)N2CCC(CCn3nc(-c4ccc5[nH]ccc5c4)c4c(N)ncnc43)CC2)cc1" and report it.
output: 0.132 µM

input: Answer with reported EC50 of "Nc1ncnc2c1c(-c1ccc3[nH]ccc3c1)nn2CCC1CCN(S(=O)(=O)c2ccccc2F)CC1"
output: 0.339 µM

input: Note down EC50 recorded for "CC(C)(C)c1ccc(S(=O)(=O)N2CCC(CCn3nc(-c4ccc5[nH]ccc5c4)c4c(N)ncnc43)CC2)cc1"
output: > 1 µM

input: Read off the recorded EC50 for "Nc1ncnc2c1c(-c1ccc3[nH]ccc3c1)nn2CCC1CCN(S(=O)(=O)c2cccc(Cl)c2Cl)CC1"
output: 0.848 µM
